- procedureDetails: Pharmacokinetics of single oral doses of nirogacestat dihydrobromide
- Format: in vivo, human
- assayConditions: human, in vivo, po, 100 mg, COHORT 2: 100 mg, Period 1, read-out: AUCinf, Median
Counter-ions that a name gives are not always drawn.
measuredParameter: AUC(0-inf) (ng·h/mL)
Write the number in ng·h/mL without appending the unit.

// AUC(0-inf) lookup, key: CCC[C@H](N[C@H]1CCc2cc(F)cc(F)c2C1)C(=O)Nc1cn(C(C)(C)CNCC(C)(C)C)cn1 [nirogacestat dihydrobromide]
1710

###

- procedureDetails: Pharmacokinetics of single oral doses of nirogacestat dihydrobromide
- Format: in vivo, human
- assayConditions: human, in vivo, po, 150 mg, COHORT 1: 150 mg (1 × 150 mg), Period 2, read-out: AUCinf, Median
Where a name gives a salt, the structure may show the parent alone.
measuredParameter: AUC(0-inf) (ng·h/mL)
Write the number in ng·h/mL without appending the unit.

// AUC(0-inf) lookup, key: CCC[C@H](N[C@H]1CCc2cc(F)cc(F)c2C1)C(=O)Nc1cn(C(C)(C)CNCC(C)(C)C)cn1 [nirogacestat dihydrobromide]
3100

The measurements presented in this section are drawn from patent US20230372301A1.
